meta.source: PubChem BioAssay (NCATS)

assay: Quantitative High-Throughput drug screen in 47 multiple myeloma cell lines against the NCATS MIPE library collection: KMS28PE_JCRB cell viability assay (AID 1918983); details: KMS28PE multiple myeloma viability, CellTiter-Glo ATP, 48 h; series mostly up to 45.8 µM; also: potency is read from the fitted curve at half-maximal effect; nearly all actives have a fitted effect of over 35% in size
Results filed as inconclusive are left out. Active and inactive are the calls of the source. Calls follow the shape of the dose curve; as a rule, active = well fitted cell-killing curve with a large enough effect; inconclusive = small, poorly fitted or top-dose-only effect, or effect the other way; inactive = no such curve, though single readings can be large or run the other way.

molecule smiles | Potency
Cc1cc(Nc2cc(N3CCN(C)CC3)nc(Sc3ccc(NC(=O)C4CC4)cc3)n2)n[nH]1 | 11.8 µM (active)
Cc1[nH]nc2ccc(-c3cncc(OC[C@@H](N)Cc4ccccc4)c3)cc12 | 4.18 µM (active)
CN1CCN(c2ccc3nc(-c4c(N)c5c(F)cccc5[nH]c4=O)[nH]c3c2)CC1 | 26.4 µM (active)
COc1cc2c(Oc3ccc(NC(=O)C4(C(=O)Nc5ccc(F)cc5)CC4)cc3F)ccnc2cc1OCCCN1CCOCC1 | 4.18 µM (active)
CCN(CC)CCCCNc1ncc2cc(-c3cc(OC)cc(OC)c3)c(NC(=O)NC(C)(C)C)nc2n1 | 6.62 µM (active)
N#Cc1c(O)c2c(-c3ccc(-c4ccccc4O)cc3)csc2[nH]c1=O | 13.2 µM (active)
Cc1cc(C(=O)N2CCN(c3cccc(Cl)c3)CC2)n(-c2ccccc2)n1 | 1.87 µM (active)
CCN(CC)CCNC(=O)c1ccc2nc(-c3ccccc3)c(-c3ccc(CN4CCC(n5c(=O)[nH]c6ccccc65)CC4)cc3)nc2c1 | 23.5 µM (active)

====

Quick reference: viability (% of control) of the listed items.
assay: High-throughput drug toxicity screening in the BPDCN cell line Cal-1 (AID 1224825); conditions: Cal-1 BPDCN cell viability, qHTS; at 45.8 µM (top of the series) unless noted;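 also: cells exposed to compounds for 48 h; 100% = DMSO and 0% = bortezomib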

molecule smiles | viability (% of control), %
CNC(=O)c1c(F)cccc1Nc1nc(Nc2cc3c(cc2OC)CCN3C(=O)CN(C)C)nc2[nH]ccc12 | 2.8
CC1=C(CO)C(=O)O[C@@H]([C@@H](C)[C@H]2CC[C@H]3[C@@H]4C[C@H]5O[C@]56[C@@H](O)C=CC(=O)[C@]6(C)[C@@H]4CC[C@]23C)C1 | 1.9
Cc1coc2c1C(=O)C(=O)c1c-2ccc2c1CCCC2(C)C | 83.1
CC(C)c1nn(-c2c(Cl)cccc2Cl)c2nc(Cc3ccc(OCCO)cc3)[nH]c(=O)c12 | 2.52

====

biological target: Glutathione peroxidase 1 (Homo sapiens); assay: Primary qHTS Assay for Inhibitors of Recombinant Selenoprotein Glutathione Peroxidase 1 (GPX1) (AID 1845191); conditions: recombinant GPX1, GR-coupled NADPH fluorescence, 15 min; series mostly up to 48.8 µM; also: nearly all actives have a fitted effect of over 65% in size
Inconclusive results are not listed. Activity calls are given as the source filed them. Calls follow the shape of the dose curve; as a rule, active = well fitted inhibition curve with a large enough effect; inconclusive = small, poorly fitted or top-dose-only effect; inactive = flat fitted curve, though single readings scatter.
Outcomes: true for active, false for inactive

compound | class label
Cc1ccc(C(N)=O)cc1Nc1nccc(-c2cn(C(C)C)c3cnccc23)n1 | false
O=C(CCCCCCNC(=O)c1cnc(N(c2ccccc2)c2ccccc2)nc1)NO | false
CC(=O)Nc1sc2c(c1-c1nc3ccccc3s1)CNC2 | true
CC(C)c1cc(C(=O)N2Cc3ccc(CN4CCN(C)CC4)cc3C2)c(O)cc1O | false
O=c1c2ccccc2nc2n1CCc1c-2[nH]c2ccccc12 | false
COC(=O)Nc1nc2ccc(C(=O)c3ccc(F)cc3)cc2[nH]1 | false
CCCCCN(CCC12CC3CC(CC(C3)C1)C2)C(=O)NCCCc1ccncc1 | false
Cc1cnc(Nc2ccc(F)cc2Cl)nc1-c1c[nH]c(C(=O)N[C@H](CO)c2cccc(Cl)c2)c1 | false
Cc1[nH]nc2ccc(-c3cncc(OC[C@@H](N)Cc4ccccc4)c3)cc12 | false
CC(C)c1ccc(Cn2ccc3c4c(N)nc(NC5CC5)nc4ccc32)cc1 | false
Cn1cncc1[C@@](N)(c1ccc(Cl)cc1)c1ccc2c(c1)c(-c1cccc(Cl)c1)cc(=O)n2C | false
CN1c2cc(O)c(N=NC(N)=O)cc2CC1S(=O)(=O)O (stereo unspecified) | false
CC1COC2(CCN(c3nc(=O)c4cc(C(F)(F)F)cc([N+](=O)[O-])c4s3)CC2)O1 (stereo unspecified) | false
CNC(=O)c1c(F)cccc1Nc1nc(Nc2cc3c(cc2OC)CCN3C(=O)CN(C)C)nc2[nH]ccc12 | false
CC(C)(O)CCc1ccc(OCc2cc(-c3cccc(OC(F)F)c3)c3ncccc3c2)cc1 | false
CC(C)(C)c1cc(C(C)(C)C)c(NC(=O)c2c[nH]c3ccccc3c2=O)cc1O | false

====

Test system: MCC-13
Experiment: qHTS assay to identify novel small-molecules to repurpose for Merkel cell carcinoma treatment (AID 1296009); also: nearly all actives have a fitted effect of over 60% in size
Conditions: MCC and control cell lines, CellTiter-Glo viability, 72 h; series mostly up to 46 µM
From the text: MCC is a rare and aggressive neuroendocrine skin cancer with limited treatment options. Approximately 80% of MCCs have the Merkel cell polyomavirus (MCPyV) DNA integrated into the host genome (virus-positive: VP-MCC) and viral oncogenes drive oncogenesis. The remaining MCCs are virus-negative (VN-MCC) and are caused by UV mutagenesis. […] Using cell viability as a readout (CellTiter-Glo assay) we found both overlapping and distinct drugs that can be repurposed for the treatment of VP-MCC and VN-MCC. […]
Results filed as inconclusive are left out. Calls of active or inactive are those of the source. Calls come from the whole dose curve; as a rule, active = well fitted inhibition curve with a large enough effect; inconclusive = small, poorly fitted or top-dose-only effect; inactive = flat fitted curve, though single readings scatter.
Labels: true (1) (active), false (0) (inactive)

compound | class label
O=C(O)CCCc1c[nH]c2ccccc12 | false (0)
CNC(=O)c1cc(Oc2ccc(NC(=O)Nc3cc(C(C)(C)C)nn3-c3ccc4ncccc4c3)c(F)c2)ccn1 | false (0)
CCc1c2c(nc3ccc(O)cc13)-c1cc3c(c(=O)n1C2)COC(=O)[C@]3(O)CC | true (1)
Cc1ccc(NC(=O)C2(c3ccc4c(c3)OC(F)(F)O4)CC2)nc1-c1cccc(C(=O)O)c1 | true (1)
CNC(=O)CN1CCC(Oc2cc3c(Nc4cccc(Cl)c4F)ncnc3cc2OC)CC1 | true (1)
CC1(C)OC2=C(C(=O)c3ccccc3C2=O)[C@H](NCc2ccccc2)[C@H]1O | true (1)
CC(C)c1nn(-c2c(Cl)cccc2Cl)c2nc(Cc3ccc(OCCO)cc3)[nH]c(=O)c12 | true (1)
O=C1CCC[C@@H]2[C@H]3CCC[N+]4([O-])CCC[C@@H](CN12)[C@@H]34 (some centres undefined) | false (0)
CC(=O)c1c(C)c2cnc(Nc3ccc(N4CCNCC4)cn3)nc2n(C2CCCC2)c1=O | false (0)

====

assay: qHTS of pediatric cancer cell lines to identify multiple opportunities for drug repurposing: Primary screen for RD cells (AID 1347104); conditions: RD rhabdomyosarcoma viability, CellTiter-Glo luminescence, 48 h; series mostly up to 46 µM; also: potency is read from the fitted curve at half-maximal effect; nearly all actives have a fitted effect of over 55% in size
Records with an inconclusive call do not appear. Active and inactive are the calls of the source. Calls come from the whole dose curve; as a rule, active = well fitted cell-killing curve with a large enough effect; inconclusive = small, poorly fitted or top-dose-only effect; inactive = flat fitted curve, though single readings scatter.
Each item that follows carries a reported Potency.
metric name: Potency

molecule smiles | reported value
CCn1nnc2c(N3CCOCC3)nc(-c3ccc(NC(=O)Nc4ccc(C(=O)N5CCN(C)CC5)cc4)cc3)nc21 | 0.0264 µM (active)
Nc1ncnc2c1c(-c1cnc3[nH]ccc3c1)nn2C1CCCC1 | 1.87 µM (active)
COc1cc(OC2CCN(C)CC2)ccc1Nc1ncc2c(n1)n(C1CCCC1)c(=O)n2C | 18.7 µM (active)
Cc1cnc(-c2cnc(NCCNc3ccc(C#N)cn3)nc2-c2ccc(Cl)cc2Cl)[nH]1 | 20.9 µM (active)
Nc1nc(NCCNc2ncc(-n3ccnc3)c(-c3ccc(Cl)cc3Cl)n2)ccc1[N+](=O)[O-] | 14.8 µM (active)

====

experiment: Quantitative High-Throughput drug screen in 47 multiple myeloma cell lines against the NCATS MIPE library collection: FR4_PLB cell viability assay (AID 1918924; also: nearly all actives have a fitted effect of over 35% in size); conditions: FR4_PLB myeloma cells viability, CellTiter-Glo ATP, 48 h; series mostly up to 45.8 µM
Records with an inconclusive call do not appear. Active and inactive are the calls of the source. Calls follow the shape of the dose curve; as a rule, active = well fitted cell-killing curve with a large enough effect; inconclusive = small, poorly fitted or top-dose-only effect, or effect the other way; inactive = no such curve, though single readings can be large or run the other way.
Labels: YES = active, NO = inactive

molecule smiles | class label
O=C(O)c1ccc2cc(-c3ccc(O)c(C45CC6CC(CC(C6)C4)C5)c3)ccc2c1 | YES
COCCn1c2c([n+](Cc3cnccn3)c1C)C(=O)c1ccccc1C2=O | YES
CN1CC[C@@H](c2c(O)cc(O)c3c(=O)cc(-c4ccccc4Cl)oc23)[C@@H](O)C1 | YES
Cc1cccc(C=NNc2cc(N3CCOCC3)nc(OCCc3ccccn3)n2)c1 | YES
Nc1cc(C(F)(F)F)c(-c2cc(N3CCOCC3)nc(N3CCOCC3)n2)cn1 | YES
CCN(CC)CCCCNc1ncc2cc(-c3cc(OC)cc(OC)c3)c(NC(=O)NC(C)(C)C)nc2n1 | YES
COc1c(OCCCN2CCOCC2)ccc2c3n(c(=NC(=O)c4cnc(N)nc4)nc12)CCN3 | YES
CCCCCN(CCC12CC3CC(CC(C3)C1)C2)C(=O)NCCCc1ccncc1 | YES
O=C(CCCCCCNC(=O)c1cnc(N(c2ccccc2)c2ccccc2)nc1)NO | YES
Cc1c(CN2CCN(S(C)(=O)=O)CC2)sc2c(N3CCOCC3)nc(-c3cnc(N)nc3)nc12 | YES
C[C@@H]1CN(CC(=O)Nc2ccc3c(c2)Cc2cccc(-c4cc(=O)cc(N5CCOCC5)o4)c2S3)C[C@H](C)O1 | YES
COc1ccc2c(OCc3nnc4ccc(-c5ccccc5)nn34)ccnc2c1 | NO
CC(C)[C@H](C(=O)Nc1ccc(C(=O)NO)cc1)c1ccccc1 | YES
NC(=O)Nc1cc(-c2cccc(F)c2)sc1C(=O)N[C@H]1CCCNC1 | YES
COC(=O)Nc1nc2ccc(C(=O)c3ccc(F)cc3)cc2[nH]1 | YES
CS(=O)(=O)c1ccc(-c2cnc(N)c(C(=O)Nc3ccccc3)n2)cc1 | YES
CC=C1NC(=O)[C@H]2CSSCCC=C[C@H](CC(=O)N[C@H](C(C)C)C(=O)N2)OC(=O)[C@H](C(C)C)NC1=O | YES
COc1ccc(OC)c(-c2nnc3ccc(-c4ccc(OC)c(O[C@@H]5CCOC5)c4)nn23)c1 | YES
O=C(O)Cn1nnc(-c2cc(N3CCC(Oc4cc(F)ccc4Br)CC3)no2)n1 | NO
